biological target: purified human PARP-1 enzyme (Homo sapiens)
reported.property: Ki
Remember to put the unit after the number in your answer.

molecule: Cc1[nH]c(=O)c2c(c1-c1ccc(CN3CCCC3)o1)CCCC2
system.under.test: purified human PARP-1 enzyme (Homo sapiens)
reported.property: Ki
experimental.result: 15 nM

Would you be so kind as to report Ki for each listed record?
1. CCCCNCc1ccc(-c2c[nH]c(=O)c3c2CCCC3)o1
2. O=c1[nH]cc(-c2ccc(CNCC(O)c3ccccc3)o2)c2c1CCCC2 (stereo not drawn)

**A:**
1. 40 nM
2. 24 nM

====

Biological target: recombinantly expressed human PARP-1 enzyme (Homo sapiens, UniProt P09874)
Sequence (P09874 whole entry): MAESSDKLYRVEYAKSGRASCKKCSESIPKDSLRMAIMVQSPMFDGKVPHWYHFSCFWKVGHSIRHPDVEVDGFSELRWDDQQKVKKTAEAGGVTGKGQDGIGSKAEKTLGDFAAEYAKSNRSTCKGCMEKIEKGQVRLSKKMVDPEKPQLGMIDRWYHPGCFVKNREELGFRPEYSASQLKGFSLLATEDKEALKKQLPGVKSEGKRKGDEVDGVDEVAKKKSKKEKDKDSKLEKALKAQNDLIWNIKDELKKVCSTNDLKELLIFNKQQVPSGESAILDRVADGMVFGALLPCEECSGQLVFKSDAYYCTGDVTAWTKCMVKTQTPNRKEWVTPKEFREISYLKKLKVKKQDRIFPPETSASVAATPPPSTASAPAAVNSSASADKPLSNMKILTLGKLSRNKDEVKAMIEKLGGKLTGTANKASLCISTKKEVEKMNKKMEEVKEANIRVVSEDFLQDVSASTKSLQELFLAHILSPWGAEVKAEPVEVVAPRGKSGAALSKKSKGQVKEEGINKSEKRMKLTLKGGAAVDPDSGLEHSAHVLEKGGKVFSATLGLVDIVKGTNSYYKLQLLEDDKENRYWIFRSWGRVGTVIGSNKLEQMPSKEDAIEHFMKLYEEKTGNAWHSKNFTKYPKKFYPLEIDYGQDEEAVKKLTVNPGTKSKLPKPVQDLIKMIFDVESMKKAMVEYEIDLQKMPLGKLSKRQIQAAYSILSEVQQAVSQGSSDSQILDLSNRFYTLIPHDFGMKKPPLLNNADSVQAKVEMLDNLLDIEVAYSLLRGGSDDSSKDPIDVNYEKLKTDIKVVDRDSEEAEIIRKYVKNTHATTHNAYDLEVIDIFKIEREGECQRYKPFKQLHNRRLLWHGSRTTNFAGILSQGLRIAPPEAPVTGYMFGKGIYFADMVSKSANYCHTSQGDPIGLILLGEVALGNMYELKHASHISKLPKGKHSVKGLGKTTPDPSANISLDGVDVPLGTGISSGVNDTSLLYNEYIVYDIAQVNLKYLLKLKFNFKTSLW
Experiment: PARP enzyme assay (half-maximum inhibitor concentration)
Conditions: DNA-activated PARP-1, 200 μM NAD, tritium-labeled NAD incorporation, room temperature, 1 hour, pH 8.0
Protocol: Pharmacological Investigations PARP Enzyme Assay The half-maximum inhibitor concentration is determined by incubating the substances to be tested with the DNA-activated, recombinantly expressed and purified PARP-1 enzyme. […] After incubation on ice for 10 minutes, the labeled, insoluble constituents are separated off through a glass fiber filter and, after washing with 20% trichloroacetic acid three times, the radioactivity incorporated by the PARP-1 enzyme is measured by radioluminescence. […]
Under this convention, True denotes IC50 strictly below 1000 nM and False denotes IC50 at or above 1000 nM.

Worked examples, 10 molecules total:
molecule: COc1ccc(C(=O)NCc2ccc(-c3c[nH]c(=O)c4c3CCCC4)o2)cc1
system.under.test: recombinantly expressed human PARP-1 enzyme (Homo sapiens, UniProt P09874)
answer.label: False
//
molecule: O=C(NCc1ccc(-c2c[nH]c(=O)c3c2CCCC3)o1)c1ccco1
system.under.test: recombinantly expressed human PARP-1 enzyme (Homo sapiens, UniProt P09874)
answer.label: True
//
molecule: O=c1[nH]cc(Nc2cccc(CO)c2)c2c1CCCC2
system.under.test: recombinantly expressed human PARP-1 enzyme (Homo sapiens, UniProt P09874)
answer.label: True
//
molecule: O=C(c1cccc(Nc2c[nH]c(=O)c3c2CCCC3)c1)N1CCN(CC2CC2)CC1
system.under.test: recombinantly expressed human PARP-1 enzyme (Homo sapiens, UniProt P09874)
answer.label: True
//
molecule: O=C(NCCNc1ncccn1)c1cncc(-c2c[nH]c(=O)c3c2CCCC3)c1
system.under.test: recombinantly expressed human PARP-1 enzyme (Homo sapiens, UniProt P09874)
answer.label: False
//
molecule: CN(Cc1ccc(-c2c[nH]c(=O)c3c2CCCC3)o1)Cc1nc2c(s1)CCCC2
system.under.test: recombinantly expressed human PARP-1 enzyme (Homo sapiens, UniProt P09874)
answer.label: False
//
molecule: COc1ccccc1CNC(=O)c1cncc(-c2c[nH]c(=O)c3c2CCCC3)c1
system.under.test: recombinantly expressed human PARP-1 enzyme (Homo sapiens, UniProt P09874)
answer.label: False
//
molecule: O=C(c1cncc(-c2c[nH]c(=O)c3c2CCCC3)c1)N1CCC(c2ccncc2)C1 (stereo not drawn)
system.under.test: recombinantly expressed human PARP-1 enzyme (Homo sapiens, UniProt P09874)
answer.label: True
//
molecule: O=c1[nH]cc(-c2ccc(CNCN3CCC(N4CCCC4)CC3)o2)c2c1CCCC2
system.under.test: recombinantly expressed human PARP-1 enzyme (Homo sapiens, UniProt P09874)
answer.label: True
//
molecule: Cc1[nH]c(=O)c2c(c1Nc1cccc(OC(F)(F)F)c1)CCCC2
system.under.test: recombinantly expressed human PARP-1 enzyme (Homo sapiens, UniProt P09874)
answer.label: False

**Q:** Please determine if "CC(=O)Nc1ccc(CNC(=O)c2cncc(-c3c[nH]c(=O)c4c3CCCC4)c2)cc1" is below 1000 nM in terms of IC50.
**A:** False

**Q:** Please determine if "CN(C)CCNCc1ccc(-c2c[nH]c(=O)c3c2CCCC3)o1" is below 1000 nM in terms of IC50.
**A:** True

**Q:** Please determine if "O=C(NCCc1cccnc1)c1cccc(Nc2c[nH]c(=O)c3c2CCCC3)c1" is below 1000 nM in terms of IC50.
**A:** False

**Q:** Please determine if "Cc1[nH]c(=O)c2c(c1-c1ccc(CN3CCCC3)o1)CCCC2" is below 1000 nM in terms of IC50.
**A:** True

**Q:** Please determine if "CC(=O)Nc1ccc(CNCc2ccc(-c3c[nH]c(=O)c4c3CCCC4)o2)cc1" is below 1000 nM in terms of IC50.
**A:** True

**Q:** Please determine if "CCOc1cccc(Nc2c[nH]c(=O)c3c2CCCC3)c1" is below 1000 nM in terms of IC50.
**A:** True

**Q:** Please determine if "CNC(=O)c1cccc(Nc2c[nH]c(=O)c3c2CCCC3)c1" is below 1000 nM in terms of IC50.
**A:** True

**Q:** Please determine if O=C(NCC1CC(c2ccccc2)=NO1)c1cncc(-c2c[nH]c(=O)c3c2CCCC3)c1 (stereo not drawn) is below 1000 nM in terms of IC50.
**A:** False
